Test system: SF-268 CNS
Test: NCI tumour cell line growth inhibition, 48 h
Reported values of TGI for individual entries

{"compound": "CSCCCNC(=O)c1csc(-c2csc(CCNC(=O)CNC(=O)CNC(=O)OC(C)(C)C)n2)n1", "TGI": "> 100 µM"}

--- query ---
Ask: Report TGI from SF-268 CNS testing of `c1ccc2c(c1)ccn1ccc3c4ccccc4nc-3c21`
Result: 2.29 µM

###

Test system: SK-MEL-2 melanoma
# GI50 listing for each entry below

Ask: Give GI50 for this entry on SK-MEL-2 melanoma: `O=C(NCc1ccco1)c1cccc(NC2=C(Cl)C(=O)N(Cc3ccccc3)C2=O)c1`
Result: 3.3 µM

Ask: Please indicate recorded GI50 of `CN(C)c1ccc(/C=c2/c3ccccc3n3c2c2cc(F)ccc2[n+]3C)cc1` measured with SK-MEL-2 melanoma.
Result: 3.54 µM

Ask: Please report the measured GI50 for `Cc1cn(-c2ccc(S(C)(=O)=O)cc2)c(-c2ccc(Cl)cc2)n1` tested on SK-MEL-2 melanoma.
Result: > 100 µM

Ask: Write GI50 of COc1ccc(C(CC(=O)c2ccccc2)C(C(=O)c2ccccc2)C(c2ccc(OC)cc2)C2C(=O)NC(=S)NC2=O)cc1 (stereo not given) ; system used: SK-MEL-2 melanoma
Result: 13.8 µM

Ask: Report measured GI50 on SK-MEL-2 melanoma; entry: `CN1CCN(Cc2ccc3c(NNC(=O)c4ccccc4)nc4cc(F)ccc4n23)CC1`
Result: 2.41 µM

###

# GI50 per record follows
Test system: UACC-62 melanoma
Assay: NCI tumour cell line growth inhibition, 48 h

Field: example entries. Status: answers known.
{"molecule": "COc1ccc(C(CC(=O)c2ccccc2)C(C(=O)c2ccccc2)C(c2ccc(OC)cc2)C2C(=O)NC(=S)NC2=O)cc1 (configuration not stated)", "GI50": "13.3 µM"}
{"molecule": "COc1ccc(Nc2nc3cc(N)cc(N)c3nc2-c2ccccc2)cc1OC", "GI50": "13.4 µM"}
{"molecule": "O=c1cc(-c2ccccc2)oc2cc(OC/C(=N/O)c3ccc(F)cc3)ccc12", "GI50": "14.8 µM"}

Ask: Give the reported value of GI50 for this record: `N#Cc1c(N)nc(NCc2ccccc2)c(C#N)c1-c1ccc(Cl)cc1Cl`
Result: > 100 µM

Ask: Answer with reported GI50 of `Cc1cc(Nc2cc(N3CCN(C)CC3)nc(Sc3ccc(NC(=O)C4CC4)cc3)n2)n[nH]1`
Result: 1.53 µM

Ask: Give the measured GI50 for `C#COc1cccc(Nc2ncnc3cc(NC(=O)[C@H](C)Cl)ccc23)c1`
Result: 2.96 µM

Ask: State its GI50 for this molecule: `COc1cccc(/C(C)=N/NC(=O)CSc2nc3ccccc3c(=O)n2CCc2ccc(S(N)(=O)=O)cc2)c1`
Result: 8.32 µM

###

Below is a list of entries, each paired with its recorded TGI value.
Tested on: A549 NSCLC
Assay: NCI tumour cell line growth inhibition, 48 h

Answered cases to consult:
{"compound": "Cc1ccc(-c2nc([P+](c3ccccc3)(c3ccccc3)c3ccccc3)c(Nc3ccccc3)o2)cc1", "measure-name": "TGI", "obs-value": "2.87 µM"}
{"compound": "CCOC(=O)C(CNc1ccc(O)cc1)NC(=O)c1ccccc1 (stereo not given)", "measure-name": "TGI", "obs-value": "> 100 µM"}
{"compound": "NC(=Nc1cccc(Cl)c1)c1ccccc1N", "measure-name": "TGI", "obs-value": "> 100 µM"}
{"compound": "COc1ccc(Cn2cc3c(c2-c2ccccc2)CCc2cnoc2-3)cc1N", "measure-name": "TGI", "obs-value": "> 100 µM"}

Then there is this compound:
Ask: Complete the entry with TGI for `CSCCCNC(=O)c1csc(-c2csc(CCNC(=O)CNC(=O)CNC(=O)OC(C)(C)C)n2)n1`
Result: > 100 µM
